Would you kindly list IC50 for each of these compounds?
# Tested target: Human Nav1.8 (Homo sapiens, UniProt Q9Y5Y9)
# Construct: expressed in transfected cells
# Sequence (Q9Y5Y9 whole entry): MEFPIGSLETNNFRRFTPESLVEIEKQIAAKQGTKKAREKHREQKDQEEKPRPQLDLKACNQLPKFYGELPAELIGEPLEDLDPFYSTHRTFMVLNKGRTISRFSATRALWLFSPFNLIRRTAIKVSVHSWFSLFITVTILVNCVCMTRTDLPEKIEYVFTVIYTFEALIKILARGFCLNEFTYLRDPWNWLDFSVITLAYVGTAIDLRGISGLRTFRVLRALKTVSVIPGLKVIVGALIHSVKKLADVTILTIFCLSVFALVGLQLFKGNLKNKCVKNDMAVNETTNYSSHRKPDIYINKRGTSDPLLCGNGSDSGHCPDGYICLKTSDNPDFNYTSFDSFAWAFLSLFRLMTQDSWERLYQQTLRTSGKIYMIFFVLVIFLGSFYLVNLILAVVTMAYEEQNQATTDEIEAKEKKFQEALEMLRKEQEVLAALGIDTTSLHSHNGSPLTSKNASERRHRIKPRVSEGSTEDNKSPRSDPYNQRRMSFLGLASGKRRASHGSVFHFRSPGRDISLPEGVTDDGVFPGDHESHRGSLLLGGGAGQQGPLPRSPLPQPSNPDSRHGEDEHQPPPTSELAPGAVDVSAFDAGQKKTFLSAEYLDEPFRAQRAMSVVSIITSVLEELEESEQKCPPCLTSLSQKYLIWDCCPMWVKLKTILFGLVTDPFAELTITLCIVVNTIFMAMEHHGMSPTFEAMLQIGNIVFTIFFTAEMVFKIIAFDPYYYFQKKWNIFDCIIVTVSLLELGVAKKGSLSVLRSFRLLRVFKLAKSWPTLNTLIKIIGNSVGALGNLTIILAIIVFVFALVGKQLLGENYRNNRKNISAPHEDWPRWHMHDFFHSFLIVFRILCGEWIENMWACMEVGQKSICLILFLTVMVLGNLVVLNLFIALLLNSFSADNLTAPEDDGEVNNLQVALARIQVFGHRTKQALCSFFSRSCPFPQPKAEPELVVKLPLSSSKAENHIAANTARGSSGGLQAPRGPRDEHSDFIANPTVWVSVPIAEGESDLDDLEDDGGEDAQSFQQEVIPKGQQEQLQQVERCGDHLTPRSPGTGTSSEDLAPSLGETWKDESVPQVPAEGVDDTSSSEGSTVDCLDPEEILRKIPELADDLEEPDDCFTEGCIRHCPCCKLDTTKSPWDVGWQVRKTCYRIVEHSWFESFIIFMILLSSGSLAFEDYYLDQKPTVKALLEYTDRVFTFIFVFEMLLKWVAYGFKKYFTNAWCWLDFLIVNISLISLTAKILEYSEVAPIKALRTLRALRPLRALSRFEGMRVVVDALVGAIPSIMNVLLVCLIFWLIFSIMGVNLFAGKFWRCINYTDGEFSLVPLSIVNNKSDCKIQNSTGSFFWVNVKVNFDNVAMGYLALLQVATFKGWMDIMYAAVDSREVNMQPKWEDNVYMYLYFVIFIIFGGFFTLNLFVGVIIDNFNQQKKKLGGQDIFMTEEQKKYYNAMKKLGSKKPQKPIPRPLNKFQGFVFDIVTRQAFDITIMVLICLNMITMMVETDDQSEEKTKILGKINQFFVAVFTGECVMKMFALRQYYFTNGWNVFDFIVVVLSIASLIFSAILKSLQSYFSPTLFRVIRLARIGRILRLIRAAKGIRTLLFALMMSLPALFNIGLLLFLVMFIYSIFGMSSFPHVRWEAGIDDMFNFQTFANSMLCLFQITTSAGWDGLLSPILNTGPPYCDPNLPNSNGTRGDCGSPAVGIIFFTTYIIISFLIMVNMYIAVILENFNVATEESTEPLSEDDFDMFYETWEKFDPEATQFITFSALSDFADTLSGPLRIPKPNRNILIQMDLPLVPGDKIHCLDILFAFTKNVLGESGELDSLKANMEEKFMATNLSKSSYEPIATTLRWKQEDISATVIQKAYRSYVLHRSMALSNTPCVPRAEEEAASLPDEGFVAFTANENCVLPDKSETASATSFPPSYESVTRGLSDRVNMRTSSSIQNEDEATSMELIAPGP
# Procedure details: VIPR assay for Nav1.8 (FRET membrane potential, deltamethrin as opener)
# Assay type: cell-based
# Condition: HEK293 cells expressing human Nav1.8; automated dissolution procedure; average of replicates
// units = µM; emit number, no label

IC50 for COCCn1nccc1C(=O)Nc1cnc(-c2cccc(Cl)c2Cl)c(N)n1 [Example 58] is 9.42

IC50 for COc1cc(Cl)cc(-c2ncc(NC(=O)c3conc3C)nc2N)c1Cl [Example 49] is 0.629

IC50 for COc1cc(Cl)cc(-c2ncc(NC(=O)c3ccnn3C)nc2N)c1Cl [Example 6] is 4.71

IC50 for COCCn1nccc1C(=O)Nc1cnc(-c2cc(OC)ccc2Cl)c(N)n1 [Example 34] is 15.6

IC50 for CCc1noc(C)c1C(=O)Nc1cnc(-c2cc(OC)ccc2Cl)c(N)n1 [Example 31] is 5.38

IC50 for COc1ccc(Cl)c(-c2ncc(NC(=O)c3c(C)noc3C)nc2N)c1 [Example 36] is 13.9

IC50 for Cn1nccc1C(=O)Nc1cnc(-c2cc(Cl)ccc2Cl)c(N)n1 [Example 7] is 3.8

IC50 for COc1ccc(Cl)c(-c2ncc(NC(=O)c3ccno3)nc2N)c1 [Example 32] is 6.12

----------
# Tested target: Human Nav1.8 (Homo sapiens)
# Construct: expressed in transfected cells
# Procedure details: VIPR assay for Nav1.8 (FRET membrane potential, deltamethrin as opener)
# Assay type: cell-based
# Condition: TTX-S IC50 / NaV1.8 IC50; automated dissolution procedure
Measured quantity: Selectivity Ratio

Selectivity Ratio for COc1cc(Cl)cc(-c2ncc(NC(=O)c3ccnn3C)nc2N)c1Cl is >4.25

Selectivity Ratio for Cc1oncc1C(=O)Nc1cnc(-c2ccccc2Cl)c(N)n1 is >2.90

Selectivity Ratio for Cc1nonc1C(=O)Nc1cnc(-c2cc(Cl)ccc2Cl)c(N)n1 is >3.54

Selectivity Ratio for Cc1nonc1C(=O)Nc1cnc(-c2cccc(Cl)c2Cl)c(N)n1 is >3.58

Selectivity Ratio for Cc1oncc1C(=O)Nc1cnc(-c2cc(Cl)cc3c2OCCO3)c(N)n1 is >3.25

Selectivity Ratio for Cc1nocc1C(=O)Nc1cnc(-c2cc(Cl)cc3c2OCCO3)c(N)n1 is 4.35

Selectivity Ratio for Cn1nccc1C(=O)Nc1cnc(-c2cc(Cl)ccc2Cl)c(N)n1 is 5.40

Selectivity Ratio for COc1ccc(Cl)c(-c2ncc(NC(=O)c3cnoc3C(C)C)nc2N)c1 is >8.15

----------
# Tested target: Human Nav1.8 (Homo sapiens, UniProt Q9Y5Y9)
# Construct: expressed in transfected cells
# Procedure details: VIPR assay for Nav1.8 (FRET membrane potential, deltamethrin as opener)
# Format: cell-based
# Condition: TTX-S IC50 / NaV1.8 IC50; automated dissolution procedure
Measured quantity: Selectivity Ratio

Selectivity Ratio for COc1ccc(Cl)c(-c2ncc(NC(=O)c3ccno3)nc2N)c1 is >4.93

Selectivity Ratio for COc1cc(Cl)cc(-c2ncc(NC(=O)c3cnoc3)nc2N)c1Cl is >3.75

Selectivity Ratio for Cc1nonc1C(=O)Nc1cnc(-c2cccc3ccccc23)c(N)n1 is >1.67

Selectivity Ratio for COCCn1nccc1C(=O)Nc1cnc(-c2cccc(Cl)c2Cl)c(N)n1 is >3.21

Selectivity Ratio for COc1cc(Cl)cc(-c2ncc(NC(=O)c3conc3C)nc2N)c1Cl is >21.6

----------
# Tested target: Human Nav1.8 (Homo sapiens)
# Construct: expressed in transfected cells
# Procedure details: VIPR assay for Nav1.8 (FRET membrane potential, deltamethrin as opener)
# Assay type: cell-based
# Condition: HEK293 cells expressing human Nav1.8; automated dissolution procedure; average of replicates
Rule: IC50 below 8 µM gives yes (1). Equal to or above 8 µM gives no (0).

Request: Say whether its IC50 is strictly beneath 8 µM. Entry: COc1cc(Cl)c(Cl)c(-c2ncc(NC(=O)c3ccnn3C)nc2N)c1
Result: yes (1)

Request: Say whether its IC50 is strictly beneath 8 µM. Entry: Cc1nonc1C(=O)Nc1cnc(-c2cc(Cl)cc3c2OCCO3)c(N)n1
Result: no (0)

Request: Say whether its IC50 is strictly beneath 8 µM. Entry: Cn1nccc1C(=O)Nc1cnc(-c2cccc(Cl)c2Cl)c(N)n1
Result: yes (1)

Request: Say whether its IC50 is strictly beneath 8 µM. Entry: COc1ccc(Cl)c(-c2ncc(NC(=O)c3cnoc3C)nc2N)c1
Result: no (0)

Request: Say whether its IC50 is strictly beneath 8 µM. Entry: CCCc1oncc1C(=O)Nc1cnc(-c2cc(OC)ccc2Cl)c(N)n1
Result: no (0)

Request: Say whether its IC50 is strictly beneath 8 µM. Entry: Cn1nccc1C(=O)Nc1cnc(-c2cc(Cl)cc3c2OCCO3)c(N)n1
Result: no (0)

Request: Say whether its IC50 is strictly beneath 8 µM. Entry: Cc1nonc1C(=O)Nc1cnc(-c2cccc3ccccc23)c(N)n1
Result: no (0)

Request: Say whether its IC50 is strictly beneath 8 µM. Entry: COc1cc(Cl)cc(-c2ncc(NC(=O)c3cnoc3C)nc2N)c1Cl
Result: no (0)

Request: Say whether its IC50 is strictly beneath 8 µM. Entry: Cc1oncc1C(=O)Nc1cnc(-c2ccccc2Cl)c(N)n1
Result: no (0)

Request: Say whether its IC50 is strictly beneath 8 µM. Entry: Nc1nc(NC(=O)c2ccn[nH]2)cnc1-c1cc(Cl)ccc1Cl
Result: no (0)

Request: Say whether its IC50 is strictly beneath 8 µM. Entry: Cc1nocc1C(=O)Nc1cnc(-c2ccccc2Cl)c(N)n1
Result: yes (1)

----------
# Tested target: Human Nav1.8 (Homo sapiens, UniProt Q9Y5Y9)
# Construct: expressed in transfected cells
# Procedure details: VIPR assay for Nav1.8 (FRET membrane potential, deltamethrin as opener)
# Type: cell-based
# Condition: HEK293 cells expressing human Nav1.8; manual dissolution procedure; average of replicates
Measured quantity: IC50 (nM)
// units = nM; emit number, no label

IC50 for Cc1oncc1C(=O)Nc1cnc(-c2cc(Cl)cc(Cl)c2Cl)c(N)n1 is 276

IC50 for Cc1nocc1C(=O)Nc1cnc(-c2cc(Cl)ccc2Cl)c(N)n1 is 188

IC50 for Cn1nccc1C(=O)Nc1cnc(-c2cc(Cl)cc(Cl)c2Cl)c(N)n1 is 988

IC50 for Cc1nocc1C(=O)Nc1cnc(-c2cccc3ccccc23)c(N)n1 is 4720

IC50 for Cc1nocc1C(=O)Nc1cnc(-c2cc(Cl)cc(Cl)c2Cl)c(N)n1 is 417

IC50 for Cn1nccc1C(=O)Nc1cnc(-c2cc(Cl)ccc2Cl)c(N)n1 is 3980

----------
# Tested target: Human Nav1.8 (Homo sapiens)
# Construct: expressed in transfected cells
# Procedure details: VIPR assay for Nav1.8 (FRET membrane potential, deltamethrin as opener)
# Type: cell-based
# Condition: HEK293 cells expressing human Nav1.8; automated dissolution procedure; average of replicates
Would you kindly list IC50 for each of these compounds?
// units = µM; emit number, no label

IC50 for Cc1oncc1C(=O)Nc1cnc(-c2cc(Cl)cc3c2OCCO3)c(N)n1 is 5.45

IC50 for COc1ccc(Cl)c(-c2ncc(NC(=O)c3nonc3C)nc2N)c1 is 7.97

IC50 for Cn1nccc1C(=O)Nc1cnc(-c2cc(F)ccc2Cl)c(N)n1 is 8.73

IC50 for Nc1nc(NC(=O)c2cnoc2)cnc1-c1cccc(Cl)c1Cl is 7.19

IC50 for CC(C)c1oncc1C(=O)Nc1cnc(-c2ccccc2Cl)c(N)n1 is 0.964

IC50 for Cn1nccc1C(=O)Nc1cnc(-c2cc(C#N)ccc2Cl)c(N)n1 is 4.47

IC50 for COc1ccc(Cl)c(-c2ncc(NC(=O)c3cnoc3C(C)C)nc2N)c1 is 3.63

IC50 for Cc1nocc1C(=O)Nc1cnc(-c2cccc(Cl)c2Cl)c(N)n1 is 0.425

IC50 for Cc1nocc1C(=O)Nc1cnc(-c2cc(Cl)ccc2Cl)c(N)n1 is 0.511

IC50 for COc1ccc(Cl)c(-c2ncc(NC(=O)c3conc3C)nc2N)c1 is 2.61

IC50 for Cc1nonc1C(=O)Nc1cnc(-c2cccc(Cl)c2Cl)c(N)n1 is 7.23

IC50 for Cc1oncc1C(=O)Nc1cnc(-c2cc(Cl)cc(Cl)c2Cl)c(N)n1 is 1.36

IC50 for COc1ccc(Cl)c(-c2ncc(NC(=O)c3ccnn3C)nc2N)c1 is 3.24

IC50 for Cc1nocc1C(=O)Nc1cnc(-c2cc(Cl)cc3c2OCCO3)c(N)n1 is 4.81

----------
Would you kindly list Selectivity Ratio for each of these molecules?
# Tested target: Human Nav1.8 (Homo sapiens, UniProt Q9Y5Y9)
# Construct: expressed in transfected cells
# Procedure details: VIPR assay for Nav1.8 (FRET membrane potential, deltamethrin as opener)
# Assay type: cell-based
# Condition: TTX-S IC50 / NaV1.8 IC50; automated dissolution procedure

Selectivity Ratio for Nc1nc(NC(=O)c2cnoc2)cnc1-c1cccc(Cl)c1Cl is >4.20

Selectivity Ratio for Cc1oncc1C(=O)Nc1cnc(-c2cc(Cl)cc(Cl)c2Cl)c(N)n1 is 10.8

Selectivity Ratio for COc1ccc(Cl)c(-c2ncc(NC(=O)c3c(C)noc3C)nc2N)c1 is >2.18

Selectivity Ratio for Cc1nocc1C(=O)Nc1cnc(-c2ccccc2Cl)c(N)n1 is >23.6

Selectivity Ratio for CC(C)c1oncc1C(=O)Nc1cnc(-c2ccccc2Cl)c(N)n1 is >21.89

Selectivity Ratio for COc1ccc(Cl)c(-c2ncc(NC(=O)c3conc3C)nc2N)c1 is 9.81

Selectivity Ratio for Cn1nccc1C(=O)Nc1cnc(-c2cc(C#N)ccc2Cl)c(N)n1 is >6.76

Selectivity Ratio for COc1ccc(Cl)c(-c2ncc(NC(=O)c3ccnn3C)nc2N)c1 is 11.8

Selectivity Ratio for Cc1nocc1C(=O)Nc1cnc(-c2cccc(Cl)c2Cl)c(N)n1 is 29.4

Selectivity Ratio for COc1cc(Cl)cc(-c2ncc(NC(=O)c3cnoc3C)nc2N)c1Cl is >2.48

Selectivity Ratio for COc1cc(Cl)c(Cl)c(-c2ncc(NC(=O)c3ccnn3C)nc2N)c1 is 12.67

Selectivity Ratio for Cc1nocc1C(=O)Nc1cnc(-c2cc(Cl)ccc2Cl)c(N)n1 is 18.00

Selectivity Ratio for Cc1nonc1C(=O)Nc1cnc(-c2cc(Cl)cc3c2OCCO3)c(N)n1 is >2.22

Selectivity Ratio for Cn1nccc1C(=O)Nc1cnc(-c2cc(Cl)cc3c2OCCO3)c(N)n1 is >1.89

Selectivity Ratio for Cn1nccc1C(=O)Nc1cnc(-c2cc(F)ccc2Cl)c(N)n1 is >3.46

Selectivity Ratio for CCc1noc(C)c1C(=O)Nc1cnc(-c2cc(OC)ccc2Cl)c(N)n1 is >5.22

Selectivity Ratio for COc1ccc(Cl)c(-c2ncc(NC(=O)c3nonc3C)nc2N)c1 is >3.69
